Taken from PubChem BioAssay.

- Protocol notes: CellTiter-Glo luminescent readout of SW480 viability loss, NPC library primary (AID 1117343)
- Particulars: CellTiter-Glo luminescence; at 20 µM (top of the series)
Could you please report measured viability decrease (inhibition) for the items listed next?
Give bare numbers, in %.

Worked cases, answers included:
CCN(CC)CC(=O)Nc1c(C)cccc1C : -0.2
CSCC[C@H](N)C(=O)O : 0.4

Attention now shifts to the item below.
Asked: Need viability decrease (inhibition) of CC(C[N+](C)(C)C)OC(N)=O (stereo not drawn) , thanks.
Given back: -11.8

----------
- System: F380Y
- Protocol notes: modulators of BK channel variants, profiling panel, selectivity assay, cell-based, U2OS BacMam, thallium flux, beta subunits (AID 1259406);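 note: initial slope of Thallos dye fluorescence rise after thallium is added; log ratio against the mean of 0.3% DMSO vehicle wells on the same plate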
- Particulars: at 30 µM
The source made the active and inactive calls.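 Rule for the calls: active = thallium flux through the channel raised or lowered by more than 3 SD from vehicle-only wells, actives on both sides; inactive = the rest.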
API: response.call in TRUE (active), FALSE (inactive)

Asked: Per the records of this test, what outcome belongs to CC(=O)OCC(=O)[C@@]1(O)CC[C@H]2[C@@H]3CCC4=CC(=O)CC[C@]4(C)[C@H]3C(=O)C[C@@]21C ?
Given back: FALSE

Asked: Per the records of this test, what outcome belongs to C[C@]12CCC(=O)C=C1CC[C@@H]1[C@@H]2[C@@H](O)C[C@@]2(C)[C@H]1CC[C@]2(O)C(=O)CO ?
Given back: FALSE

Asked: Per the records of this test, what outcome belongs to CC1=NS(=O)(=O)c2cc(Cl)ccc2N1 ?
Given back: FALSE

Asked: Per the records of this test, what outcome belongs to CC(C[N+](C)(C)C)OC(N)=O (stereo unspecified) ?
Given back: FALSE

Asked: Per the records of this test, what outcome belongs to C#C[C@]1(O)CC[C@H]2[C@@H]3CCC4=CC(=O)CC[C@@H]4[C@H]3CC[C@@]21CC ?
Given back: FALSE

Asked: Per the records of this test, what outcome belongs to CCc1cc(C(N)=S)ccn1 ?
Given back: FALSE

Asked: Per the records of this test, what outcome belongs to CN(C)CCC[C@@]1(c2ccc(F)cc2)OCc2cc(C#N)ccc21 ?
Given back: FALSE

Asked: Per the records of this test, what outcome belongs to C[C@H]1C[C@@H]2[C@H]([C@@H](O)C[C@@]3(C)[C@H]2CC[C@]3(O)C(=O)CO)[C@@]2(C)C=CC(=O)C=C12 ?
Given back: FALSE

Asked: Per the records of this test, what outcome belongs to OC(CCN1CCCCC1)(c1ccccc1)C1CCCCC1 (stereo unspecified) ?
Given back: FALSE

Asked: Per the records of this test, what outcome belongs to Cc1onc(-c2c(Cl)cccc2Cl)c1C(=O)N[C@@H]1C(=O)N2[C@@H]1SC(C)(C)[C@@H]2C(=O)O ?
Given back: FALSE

Asked: Per the records of this test, what outcome belongs to CCC(=O)O[C@]1(C(=O)CCl)[C@@H](C)C[C@H]2[C@@H]3CCC4=CC(=O)C=C[C@]4(C)[C@@]3(F)[C@@H](O)C[C@@]21C ?
Given back: TRUE

Asked: Per the records of this test, what outcome belongs to C[C@]12CCC(=O)C=C1CC[C@@H]1[C@@H]2C(=O)C[C@@]2(C)[C@H]1CC[C@]2(O)C(=O)CO ?
Given back: FALSE

Asked: Per the records of this test, what outcome belongs to CC[N+](C)(C)c1cccc(O)c1 ?
Given back: FALSE

Asked: Per the records of this test, what outcome belongs to COc1cc(NC(C)CCCN)c2ncccc2c1 (stereo unspecified) ?
Given back: FALSE

Asked: Per the records of this test, what outcome belongs to OCCN1C[C@H](O)[C@@H](O)[C@H](O)[C@H]1CO ?
Given back: FALSE

Asked: Per the records of this test, what outcome belongs to CCN(CC)CCOC(=O)C1(C2CCCCC2)CCCCC1 ?
Given back: FALSE
